src = the RNAGym collection of RNA variant scans (doi:10.7554/elife.80360)

Hi there, I'd appreciate the recorded self-cleavage for every entry that follows.
B1: HDV Ribozyme (parent)
chain: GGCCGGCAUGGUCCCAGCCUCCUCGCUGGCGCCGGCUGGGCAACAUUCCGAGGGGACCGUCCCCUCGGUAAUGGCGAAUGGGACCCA

variants of: B1; experiment: self-cleavage, relative activity (ratio to wild type); higher = more cleavage; co-transcriptional
# answer = number (no unit)

Which measured self-cleavage value corresponds to GGCCGGCCUGGUCCCAGCCUCCUCGCUGGCGCCGGCUGGGCCACAUUCCGAGGGGACCGUCCCCUCGGUAAUGGCGAAUGGGACCCA [A8C A42C] ?
0.201

Same thing, different variant: GGCCGGCAUGGUCCCAGCCUCCUCGCUUGCGCCGGCUGGGCAACAUUCCGAGGGGACCGUCCCCUCGGUAAUGGCGAAUGGGACACA [G28U C85A]
0.203

Consider next the variant GGCCGGCAUGGUCCCAGCCUCCUCGCUGGCGCCGGCUGAGCAACAUUCCGAGGGGACCGUCACCUCGGUAAUGGCGAAUGGGACCCA [G39A C62A] in the same way.
0.554

// repeat for GGCCUACAUGGUCCCAGCCUCCUCGCUGGCGCCGGCUGGGCAACAUUCCGAGGGGACCGUCCCCUCGGUAAUGGCGAAUGGGACCCA [G5U G6A] and report
0.208

Same for GGCCGGCAUGGUCCCAGCCUCCUCGCUGGCGCCGGCUGGGAAACAUUCCGAGGGGACCGUCCCCUCGGUAAUGGCAAAUGGGACCCA [C41A G76A]
0.845

And GGCCGGCAUGGUCCCAGCCUCCUCGCUGACGCCGGCUGGGCAACAUUCCGAGGGGACCGUCCCCUCGGUAAUGGCGAAUGGGACCCU [G29A A87U] ?
0.155

Try this variant too: GGCCGGCAUGGUCCCAGCCUCCUCGCUGGCGCCGGCUGCGCAACAUUCCGAGGGGACCGUCCCCUCGGUACUGGCGAAUGGGACCCA [G39C A71C]
0.0978

Try this variant next: GGCCGGCAUGCUCCCAGCCUCCGCGCUGGCGCCGGCUGGGCAACAUUCCGAGGGGACCGUCCCCUCGGUAAUGGCGAAUGGGACCCA [G11C U23G]
0.0652

And GGCCGGCAUGGUCCCAGCCUCCCCGCUGCCGCCGGCUGGGCAACAUUCCGAGGGGACCGUCCCCUCGGUAAUGGCGAAUGGGACCCA [U23C G29C] ?
0.0475

Do the same for GGCCGGCAUGGUCCCAGCCUCCUCGCUGGCGCCGGCUGGGCAACAUUCGGAGGGGACCGUCCCCUCGGUAAUGGCGAAUGUGACCCA [C49G G81U] please
0.205

And for GGCCGGCAUGGUCCGAGCCUCCUCGCUGGCGCCUGCUGGGCAACAUUCCGAGGGGACCGUCCCCUCGGUAAUGGCGAAUGGGACCCA [C15G G34U] ?
0.19

And the next one, CGCCGGCAAGGUCCCAGCCUCCUCGCUGGCGCCGGCUGGGCAACAUUCCGAGGGGACCGUCCCCUCGGUAAUGGCGAAUGGGACCCA [G1C U9A] ?
0.0978

Further, for GGCCGGCAUGAUCCCAGCCUCCUCGCUGGCGCCGGCUGGGCAACAUUCUGAGGGGACCGUCCCCUCGGUAAUGGCGAAUGGGACCCA [G11A C49U] ?
0.386

Another variant to look at: GCCCGGCAUGGUCCCAGCCUCCUCGCUGCCGCCGGCUGGGCAACAUUCCGAGGGGACCGUCCCCUCGGUAAUGGCGAAUGGGACCCA [G2C G29C]
0.109

Item: GGCCGGCAUGGACCCAGCCUCCUCGCUGGCGCCGGCGGGGCAACAUUCCGAGGGGACCGUCCCCUCGGUAAUGGCGAAUGGGACCCA [U12A U37G]
0.0536

Another variant: GGCCGGCAUGCUCCCAGCCUCCUCGCUGGCGCCGGCUGGGCAACAUUCCGAGGGGACCGUCCCCUCGGUAAUGGCGAAUGGGACGCA [G11C C85G]
0.831

Try this variant next: GGCCGGCAUGGUCCCAGCCUCCUCGCUGGCGCCGGCUGGGCAACAUUCCGAGUGGACCGUCCCCACGGUAAUGGCGAAUGGGACCCA [G53U U65A]
0.69

Please do the same for CGCCGGCAUGGUCCCAGCCUCCUCGCUGGCGCCGGCUGGGCAACAUUCCGAGGGGACCGUCCCCUCGGUAAUGGCGAUUGGGACCCA [G1C A78U] as well.
0.0755

Ok, now GGCCGACAUGGUCCCAGCCUCCUCGCUGGCGCCGGCUGGGCAACAUUCCGAGGGGACCGUCCCCUCGGUAAUGGCGAGUGGGACCCA [G6A A78G]
0.554

Please do the same for GGCCGACAUGGUCCCAGCCUCCUCGCUGGCGCCGGCUGGGCAACAUUCCGAGGGGACCGUCCCCUCGGUAAUGGCGAAUGGGACCUA [G6A C86U] as well.
0.759

GGCCGGUAUGGUCCCAGCAUCCUCGCUGGCGCCGGCUGGGCAACAUUCCGAGGGGACCGUCCCCUCGGUAAUGGCGAAUGGGACCCA [C7U C19A] , same question.
0.157

Here is the next variant: UGCCGGCAUGGUUCCAGCCUCCUCGCUGGCGCCGGCUGGGCAACAUUCCGAGGGGACCGUCCCCUCGGUAAUGGCGAAUGGGACCCA [G1U C13U]
0.326

And then GGCGGGCAUGGUCCCAGCCUCCUCGCUGGCGCCGGCCGGGCAACAUUCCGAGGGGACCGUCCCCUCGGUAAUGGCGAAUGGGACCCA [C4G U37C] , what is it?
0.375

Queued: GGCCGGCAUGGUCCCCGCCUCCUCGCUGGCGCCGGCUGGGCAACAUUCCGAGGGGACCGUCCCCUCGGUAAUGGCGAAUGGGGCCCA [A16C A83G]
0.877

Next record, please: GGCCGGCAUGGUCCCAGCCUCCUCGCUGGCGCCGUCUGGGCAACAUUCCGAGGGGACCGUACCCUCGGUAAUGGCGAAUGGGACCCA [G35U C61A]
0.428

Then this variant: GGCCGGCAUUGUCCCAGCCUCCUCGCUGGCGCCGGCUGGGCAACAUUCCGAGGGGACCGUCCCCUCGGAAAUGGCGAAUGGGACCCA [G10U U69A]
0.813

Same lookup for GGCCUGCAUGGUCCCAGCCUCCUCGCUGGCGCCGGCUGGGCAACAUUCCGAGGGGCCCGUCCCCUCGGUAAUGGCGAAUGGGACCCA [G5U A56C] , please.
0.831

How about GGCCGGCAUGGUCCCAGCCUCCUCGCUGGCGCCGGGUGGGCAACAUUCCGAGGGGACCGUUCCCUCGGUAAUGGCGAAUGGGACCCA [C36G C61U] ?
0.121

Follow-up entry: GGCCGGCAUGGUCCCAGCUUCCUCGCUGGCGCCGGCUGGGCAACAUUCCGAGGAGACCGUCCCCUCGGUAAUGGCGAAUGGGACCCA [C19U G54A]
0.179

Try this variant next: GGCCGGCAUGGUCCCAGCCUCCUAGCUGGCGCCGGCUGGGCAACAUUCCGAUGGGACCGUCCCCUCGGUAAUGGCGAAUGGGACCCA [C24A G52U]
0.769

Likewise for GGCCGGCAUGGUCCCAGCCUCCUCGCUGGCGCCGGCAGGGCAACAUUCCGAGGGGACCUUCCCCUCGGUAAUGGCGAAUGGGACCCA [U37A G59U] ?
0.181

How about GGCCGGCAUGGUCCCAGCCUCCUCGCUGCCGCCGGCUGGGCAAUAUUCCGAGGGGACCGUCCCCUCGGUAAUGGCGAAUGGGACCCA [G29C C44U] ?
0

Also GGCCGGAAUGGUCCCAGCCUCCUCGCUGGCGCCGGCUGGGCAACAUUCCGAGGGGACCGUCCCCUCGGUAAUGGCAAAUGGGACCCA [C7A G76A] , if possible.
0.868

Then CGCCGGCAUGGUCCCAGCCACCUCGCUGGCGCCGGCUGGGCAACAUUCCGAGGGGACCGUCCCCUCGGUAAUGGCGAAUGGGACCCA [G1C U20A] ?
0

Here is the next variant: GGCCGGAAUGGUCCCAGCCUCCUCGCUGGCGCCGGCUGGGCACCAUUCCGAGGGGACCGUCCCCUCGGUAAUGGCGAAUGGGACCCA [C7A A43C]
0.0923

Try this variant next: GGCCGGCAUGGUCCCAGCCUCCUCGCUGGCGACGGCUGGGCAACAUUCCGAGGGGACCGUCCCUUCGGUAAUGGCGAAUGGGACCCA [C32A C64U]
0.175

Queued: GGCCGGCAUGGUCCCAGCCUCCUCGCUGGCGCCGGCUGGGCAACAUUCCGAGGGGACCGUCCCCUCGGUAAUCGCGAAUGGGACCUA [G73C C86U]
0.914

What about GGCCGGCAUGGUCCCAGCCUCCUCGCUGGCGCCGGCUGGCCAACGUUCCGAGGGGACCGUCCCCUCGGUAAUGGCGAAUGGGACCCA [G40C A45G] ?
0.32

Now this one: AGCCGGCAUGGUCCCAGCGUCCUCGCUGGCGCCGGCUGGGCAACAUUCCGAGGGGACCGUCCCCUCGGUAAUGGCGAAUGGGACCCA [G1A C19G]
0.0875

Now try GGCCGGCAAGGUCCCAGCCUCCUCGCUGGCGCCGGCUGGGCAACAUUCGGAGGGGACCGUCCCCUCGGUAAUGGCGAAUGGGACCCA [U9A C49G] .
0.88

// query: GGCCGGCAUGGUCCCAGCCUCCUCGCUGGCGCCGGCUGGGCAACAUUCCGAGGGGACCGUCCCCUCGGUAAUGCCGAAUAGGACCCA [G74C G80A]
0.227

Please give the result for GGCCGGCAUGGUCCCAGCCUCCUCGCUGGUGCCGGCUGGGCAACAUUCCGAGGGGACCGUCCCCUCGGUACUGGCGAAUGGGACCCA [C30U A71C] too.
0.404

Cool, now GGCCGUCAUGGUCCCAGCCUCCUCGCUGGCGCCGGCUGGGCAACAUUCCGAGGGGACCGUCCCCUCGGUAAUGGCGAAUGGGACCCG [G6U A87G]
0.377

Try this variant next: GGCCGGCAUGUUCCCAGCCUUCUCGCUGGCGCCGGCUGGGCAACAUUCCGAGGGGACCGUCCCCUCGGUAAUGGCGAAUGGGACCCA [G11U C21U]
0.0923

Same question, GGCCGGCAUGCUCCCAGCCUCUUCGCUGGCGCCGGCUGGGCAACAUUCCGAGGGGACCGUCCCCUCGGUAAUGGCGAAUGGGACCCA [G11C C22U] this time
0.0817

Param item: GGCCGGCAUGGUCCCAGCCUCCUCGCUGGCGCCGGCUGGGCAACAUUCUGAGGGGACCGUCCCCUUGGUAAUGGCGAAUGGGACCCA [C49U C66U]
0.899

Entry GGCCGGCAUGGUCCCAGCCUCCUCGCUGGCGCCGGCUGGGCAACAUUCCGAGGGGACCGUCCCCUCGGUAAUGGCGAGUGAGACCCA [A78G G81A] please
0.115

Now the variant GGCCGGCAUGGUCCCAACCUCCUCGCUGGCGCCGGCUGGGCAACAUUCCGAGGGGACCGUACCCUCGGUAAUGGCGAAUGGGACCCA [G17A C61A]
0.594

Same question for GGCCGGCAUGGUCCCAGCCUCCUCGCUGGCGCCGGCUGGGCAACUUUCCGAGGGGACCGUCCCCUCGGUAAUGGCGAAUCGGACCCA [A45U G80C] please.
0

Same thing, different variant: GGCCGGCAUGGUCCCAGCCUCCUCGCUGGCGCCGGCUGGGCAACAUUCCGAGAGGACCGUCCCCUGGGUAAUGGCGAAUGGGACCCA [G53A C66G]
0.908

Now the same for GGCCGGCAUGGUCCCCGCCUCCUCGCUGGCGCCGGCUGGGCAACAUUCGGAGGGGACCGUCCCCUCGGUAAUGGCGAAUGGGACCCA [A16C C49G]
0.923

Likewise for GGCCGGCAUGGUCCCAGCCUCCUCGCUGGCUCCGGCUGGGCAACAUUCCGAGGGGACCGUCCCCUCGGUAAUGGCGAAUGGCACCCA [G31U G82C] ?
0.136

What would you report for GGCCGGCUUGGUCCCAGCCUCCUCGCUGGCGCCGGCUGGGCAACAUUCCGAGGGGACCGUCCCCUCGGAAAUGGCGAAUGGGACCCA [A8U U69A] ?
0.962

Similarly, GGCCGGCAUGGUCCCAGCCUCCUCGCUGGCGCCUGCUGGGCAACAUUCCGAGGGGACCGUCCCCUCGGUAAUUGCGAAUGGGACCCA [G34U G73U] ?
0.0455

Proceed to GGCCGGCAUGGUCCCAGCCUCCUGGCUGGCGCCGUCUGGGCAACAUUCCGAGGGGACCGUCCCCUCGGUAAUGGCGAAUGGGACCCA [C24G G35U]
0

Same for GGCCGGCAUGGUCCCAGCCUCCUCGCUGGCGCCGGCUGGGCAACACUCCGAGGGGAGCGUCCCCUCGGUAAUGGCGAAUGGGACCCA [U46C C57G]
1.04

Again, but for GGCCGGCAUGGUCCCAGCCUCCUCGCUGGCGCCGGCUGGGCAACAUUCCGACGGGACCGUCCCCUCGGUAAUGGCGAAUGGGACUCA [G52C C85U]
1.09

Follow-up entry: GGCCGGCAAGGUCCCAGCCUUCUCGCUGGCGCCGGCUGGGCAACAUUCCGAGGGGACCGUCCCCUCGGUAAUGGCGAAUGGGACCCA [U9A C21U]
0.155

Then what about the variant GGCCGGCAUGGUCCCAGCCUCCUCGCUGGCGCCGGCUGGGCAACAUUACGAGGGGACCGUCCCCUCGGUUAUGGCGAAUGGGACCCA [C48A A70U] ?
0.985

What would you report for GGCCGGCAUGGUCCCAGCCUCCUCGCUGGCUCCGGCUGGGCAACAUUCCGAGGGCACCGUCCCCUCGGUAAUGGCGAAUGGGACCCA [G31U G55C] ?
0.314

Please do the same for GGCCGGCAUGGUCCCAGCCUCCUCGCUGACGCCGGCUGGGCAACAUUCCGAGGGGACCGUCCCCUCGGUAACGGCGAAUGGGACCCA [G29A U72C] as well.
0.0852

Continue with GGCCGGCAUGGUCCCAGCCUCCUCGCUGGCGCCGGGUGGGCAACAUUCCGAGGGGACCGUCCCCUCGGUAAUGGCGAAUGGGACGCA [C36G C85G]
0.161

// query: GGCCGGCAUGGUCCCAGCCUCCUCGUUGGCGCCGGCUGGGCAACAUUCCGAGGGGACCGUCCCCUCGGUAAUGGCGAAUGGCACCCA [C26U G82C]
0.431
